testedSystem: TAAR1 (Mus musculus, UniProt Q923Y8)
Sequence (Q923Y8 whole entry): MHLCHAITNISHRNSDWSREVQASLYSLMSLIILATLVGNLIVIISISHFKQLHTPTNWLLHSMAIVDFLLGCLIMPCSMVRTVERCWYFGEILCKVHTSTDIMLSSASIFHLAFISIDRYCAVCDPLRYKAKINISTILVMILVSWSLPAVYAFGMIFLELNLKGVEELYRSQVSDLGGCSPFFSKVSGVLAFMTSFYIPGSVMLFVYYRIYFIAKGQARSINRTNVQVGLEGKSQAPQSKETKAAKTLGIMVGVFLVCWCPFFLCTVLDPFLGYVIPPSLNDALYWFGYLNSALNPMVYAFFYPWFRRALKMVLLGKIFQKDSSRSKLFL
pKd: −log10 of the molar value.

compound | testedSystem | pKd
c1ccc2c(c1)CCCC2C1=NCCN1 (racemic) [reference compound] | TAAR1 (Mus musculus, UniProt Q923Y8) | 7.22

* * *

testedSystem: TAAR1 (Mus musculus)
Construct: expressed in transfected cells; host or cells: HEK293 cells (ATCC # CRL-1573), stably transfected with pIRESneo2 expression plasmid; membranes prepared
testMethodNotes: Radioligand binding ([3H]-rac-2-(1,2,3,4-tetrahydro-1-naphthyl)-2-imidazoline) on membranes of HEK293 cells stably expressing TAAR1
conditionLabel: mouse TAAR1; radioligand at 60 nM, 4° C., 30 min incubation
Procedure: Construction of TAAR Expression Plasmids and Stably Transfected Cell Lines For the construction of expression plasmids the coding sequences of human, rat and mouse TAAR 1 were amplified from genomic DNA essentially as described by Lindemann et al.. The Expand High Fidelity PCR System (Roche Diagnostics) was used with 1.5 mM Mg^2+ and purified PCR products were cloned into pCR2.1-TOPO cloning vector (Invitrogen) following the instructions of the manufacturer. […]
Threshold 0.03 µM. Ki below it: 1.0. Ki at it or above: 0.0.

entrySmiles | classLabel
CN1CCN(c2ccc(C(=O)NCCc3cn(C)c4ccccc34)cn2)CC1 | 1.0
CN1CCN(c2ccc(C(=O)NCCc3cccc(Cl)c3)cn2)CC1 | 1.0
CN1CCC(Oc2ccc(C(=O)NCCc3ccc(Oc4ccccc4)cc3)cn2)CC1 | 1.0
CN1CCN(c2ccc(C(=O)NCCc3ccc(OCc4ccccc4)cc3)cn2)CC1 | 1.0
O=C(NCCc1ccc(OCc2ccccc2)cc1)c1ccc(N2CCNCC2)nc1 | 1.0
COc1ccc(CCNC(=O)c2ccc(N3CCN(C)CC3)nc2)cc1 | 0.0
CN1CCN(c2ccc(C(=O)NCCc3ccc(Cl)cc3)cn2)CC1 | 1.0
CN1CCN(c2ccc(C(=O)NCCc3ccc4c(c3)OCO4)cn2)CC1 | 0.0
CN1CCN(c2ccc(C(=O)NCC3CCCCC3)cn2)CC1 | 0.0
O=C(NCCc1ccc(Cl)cc1)c1cnc(N2CCNCC2)c(Br)c1 | 1.0
CN1CCN(c2ccc(C(=O)NCCc3cccc(Oc4ccccc4)c3)cn2)CC1 | 0.0
CN1CCN(c2ncc(C(=O)NCCc3ccc(Oc4ccccc4)cc3)cc2Br)CC1 | 1.0
CN1CCN(c2ccc(C(=O)NCCc3ccc(-c4ccccc4)cc3)cn2)CC1 | 1.0
CN1CCN(c2ccc(C(=O)NCCc3ccc(Oc4ccccc4)cc3)cn2)CC1 | 1.0
O=C(NCCc1ccc(Oc2ccccc2)cc1)c1ccc(N2CCNCC2)nc1 | 1.0
CN1CCN(c2ccc(C(=O)NCCC3CCCCC3)cn2)CC1 | 1.0
O=C(NCCc1ccc(Oc2ccccc2)cc1)c1cnc(N2CCNCC2)c(Br)c1 | 1.0
O=C(NCCc1cccc(Oc2ccccc2)c1)c1ccc(N2CCNCC2)nc1 | 0.0
O=C(NCCc1ccc(Cl)cc1)c1ccc(N2CCNCC2)nc1 | 0.0
